- assay_protocol: NCI Yeast Anticancer Drug Screen. Data for the mlh1 rad18 strain (AID 175)
- experimental_parameters: S. cerevisiae mlh1 rad18 strain growth inhibition; at 50.0 µM; active compounds read high
The panel holds about 79,000 compounds, 15% with a hit somewhere; the sample as a whole holds those more often.
Provide the reported growth inhibition of each item.
Numbers only, in %.

// below: answered molecules
| molecule | growth inhibition / % |
| --- | --- |
| CC1=CC(=O)c2ccc(F)cc2C1=O | 13.8 |
| CN(C)C=Nc1cccc2c1NSN2 | 33.1 |

Next:
### Prompt Field request: growth inhibition | item: CN(C)C1CCC(C=C(C2CCC(CC(=O)O)CC2)C2CCC(CC(=O)O)CC2)CC1 (stereo not drawn)
### Response 6.3

* * *

- assay_protocol: NCI Yeast Anticancer Drug Screen. Data for the bub3 strain (AID 167)
- experimental_parameters: S. cerevisiae bub3 mutant strain, at 50.0 µM, active compounds read high
- Procedure: Growth inhibition of yeast strains with defined genetic alterations is measured as a screen for potential anti-cancer activity. Selected strains with alterations in DNA damage repair or cell cycle control were exposed to compounds and growth inhibition was measured relative to vehicle treated controls. The strain used in this assay is bub3
About 79,000 compounds went through this panel and 15% of them were active in at least one assay; those are over-represented in the sample as a whole.
Please go through the items and note down their growth inhibition.
Numbers only, in %.

Before answering, review these 2 worked examples.
| compound | reported_property | data_value |
| --- | --- | --- |
| NC(CCOCCP(=O)(O)CCC1C=CC=CC1)C(=O)O (stereo unspecified) | growth inhibition | -21.3 |
| O=C(O)CSSCC(=O)O | growth inhibition | -10.2 |

Quick batch: growth inhibition for everything below.
1. Cc1c(Cl)cccc1NC(=O)Sc1ccc(C(C)(C)C)cc1
2. O=C(N/C(=C\c1ccc([N+](=O)[O-])cc1)c1nc2ccccc2[nH]1)c1ccccc1
3. O=[N+]([O-])c1ccc(-c2cn(-c3ccc(Cl)cc3)cn2)cc1
4. Cc1ccc([N+](=O)[O-])cc1NC(=O)C(=O)Cc1nc2ccc(C(=O)c3ccccc3)cc2[nH]c1=O

### Response
1. 11.4
2. 17.9
3. -1.85
4. 10.3

* * *

For each of the compounds below, state its growth inhibition.
- assay_protocol: NCI Yeast Anticancer Drug Screen. Data for the rad50 strain (AID 155);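 note: 0% = growth of vehicle-only cultures of the same strain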
- experimental_parameters: S. cerevisiae rad50 strain growth inhibition; at 50.0 µM; active compounds read high
- Protocol: Growth inhibition of yeast strains with defined genetic alterations is measured as a screen for potential anti-cancer activity. Selected strains with alterations in DNA damage repair or cell cycle control were exposed to compounds and growth inhibition was measured relative to vehicle treated controls. The strain used in this assay is rad50
This is part of a sample that, as a whole, favours compounds with a hit. Of some 79,000 tested, about 15% had one in any assay.
Give bare numbers, in %.

| compound | reported_property | data_value |
| --- | --- | --- |
| O=C(c1ccccc1)c1cc[n+]([O-])cc1 | growth inhibition | -5.6 |
| CC(O)CCCCC(O)CCC[C@H](O)[C@H]1CCC([C@H]2CCC([C@@H](O)CCCCCCCCCCCCC3=C[C@H](C)OC3=O)O2)O1 (some centres undefined) | growth inhibition | 40.9 |
| CCCCCCCCCCCCCCCC(=O)Nc1ccc(C(=O)C[n+]2ccc3c(NC(=O)CCC(=O)OC)cccc3c2)cc1 | growth inhibition | 3.4 |
| Cc1c(O)c([N+](=O)[O-])cc2c1OCOC2 | growth inhibition | 3.8 |
| O=C1C2C3C=CC(C3)C2C(=O)N1c1ncc([N+](=O)[O-])s1 (centres undefined) | growth inhibition | 17.8 |
| OCc1nc2ccccc2[nH]1 | growth inhibition | 5.6 |
| CC(=O)O[C@@H]1[C@@H](C)[C@]2(CC(c3ccoc3)OC2O)C2CCC3O[C@]3(C)[C@]2(C)[C@@H]1OC(C)=O (some centres undefined) | growth inhibition | -16 |
| N#Cc1c(-c2ccc(Cl)cc2)cn2c1[nH]c(=O)c1c3c(sc12)CCCC3 | growth inhibition | 13.2 |

Your task in this section: give growth inhibition for each listed record.
1. Cc1ccc(Cl)cc1NC(=S)N(C)C
2. CCCCCCCCCCCCCCOc1ccc2ccccc2c1
3. OCCN1OCCCC1c1ccccc1 (centres undefined)
4. CCCCCCCCCCCCCCCCc1c(C(=O)OC)nc(NN)[nH]c1=O

### Response
1: 15.9; 2: 21.5; 3: -0.75; 4: -6.3

Batch request: growth inhibition for each of the following compounds.
1. CCOC(=O)c1ccc(NC(=O)/C=C/c2ccccc2)cc1
2. Cc1cnc2cc(Cl)ccc2c1SCC(=O)O
3. CCCCCCCC(=O)C(C)C
4. COc1ccc(N2C(=O)CSC2=S)cc1
5. O=C(O)CCCCC1CCCC1
6. S=C=Nc1ccc(CSc2nc3ccccc3[nH]2)cc1

### Response
-4.55
3.6
7.55
58.6
43.4
0.8

List growth inhibition for every entry below, keeping the order given.
1. CCCCCCC(=O)N1CC(C)OC(C)C1 (centres undefined)
2. CC(=O)NC1C(OC(C)C(=O)NC(C)C(=O)NC(CCC(=O)NCCCCCNc2ccc([N+](=O)[O-])c3[nH]c4ccccc4c(=O)c23)C(N)=O)C(O)C(CO)OC1(C)OCc1ccccc1 (centres undefined)
3. CC1c2c(Cl)nc3ccccc3c2Oc2c1c(Cl)nc1ccccc21
4. Cc1cc(N(CCC#N)CCC#N)ccc1/C=C(\NC(=O)/C=C/c1ccccc1)C(=O)N=[N+]=[N-]
5. FC(F)(F)C1=NCCN1

### Response
[0.6, 13, 7.05, -30.4, -0.5]
